# System Under Test: Centromere-associated protein E (Homo sapiens)
# Assay Info: Inhibition of CENP-E (unknown origin) ATPase activity in absence of light illumination
Quantity: IC50 (nM)

CNC(=O)[C@H](Cc1ccc(/N=N/c2c(C)nn(C(=N)N)c2C)cc1)NC(=O)c1ccc(OC(C)C)c(Cl)c1 | 245

P: CNC(=O)[C@H](Cc1ccc(/N=N/c2c(C)nn(C(C)=O)c2C)cc1)NC(=O)c1ccc(OC(C)C)c(Cl)c1
Q: CNC(=O)[C@H](Cc1ccc(/N=N/c2c(C)nn(C)c2C)cc1)NC(=O)c1ccc(OC(C)C)c(Cl)c1
R: CNC(=O)[C@H](Cc1ccc(/N=N/c2c(C)nn(C(N)=S)c2C)cc1)NC(=O)c1ccc(OC(C)C)c(Cl)c1
Rank items: key IC50, increasing. List the labels, following the order given in the request. Q, R, P

---

# System Under Test: Centromere-associated protein E (Homo sapiens, UniProt Q02224)
# Sequence (Q02224 whole entry): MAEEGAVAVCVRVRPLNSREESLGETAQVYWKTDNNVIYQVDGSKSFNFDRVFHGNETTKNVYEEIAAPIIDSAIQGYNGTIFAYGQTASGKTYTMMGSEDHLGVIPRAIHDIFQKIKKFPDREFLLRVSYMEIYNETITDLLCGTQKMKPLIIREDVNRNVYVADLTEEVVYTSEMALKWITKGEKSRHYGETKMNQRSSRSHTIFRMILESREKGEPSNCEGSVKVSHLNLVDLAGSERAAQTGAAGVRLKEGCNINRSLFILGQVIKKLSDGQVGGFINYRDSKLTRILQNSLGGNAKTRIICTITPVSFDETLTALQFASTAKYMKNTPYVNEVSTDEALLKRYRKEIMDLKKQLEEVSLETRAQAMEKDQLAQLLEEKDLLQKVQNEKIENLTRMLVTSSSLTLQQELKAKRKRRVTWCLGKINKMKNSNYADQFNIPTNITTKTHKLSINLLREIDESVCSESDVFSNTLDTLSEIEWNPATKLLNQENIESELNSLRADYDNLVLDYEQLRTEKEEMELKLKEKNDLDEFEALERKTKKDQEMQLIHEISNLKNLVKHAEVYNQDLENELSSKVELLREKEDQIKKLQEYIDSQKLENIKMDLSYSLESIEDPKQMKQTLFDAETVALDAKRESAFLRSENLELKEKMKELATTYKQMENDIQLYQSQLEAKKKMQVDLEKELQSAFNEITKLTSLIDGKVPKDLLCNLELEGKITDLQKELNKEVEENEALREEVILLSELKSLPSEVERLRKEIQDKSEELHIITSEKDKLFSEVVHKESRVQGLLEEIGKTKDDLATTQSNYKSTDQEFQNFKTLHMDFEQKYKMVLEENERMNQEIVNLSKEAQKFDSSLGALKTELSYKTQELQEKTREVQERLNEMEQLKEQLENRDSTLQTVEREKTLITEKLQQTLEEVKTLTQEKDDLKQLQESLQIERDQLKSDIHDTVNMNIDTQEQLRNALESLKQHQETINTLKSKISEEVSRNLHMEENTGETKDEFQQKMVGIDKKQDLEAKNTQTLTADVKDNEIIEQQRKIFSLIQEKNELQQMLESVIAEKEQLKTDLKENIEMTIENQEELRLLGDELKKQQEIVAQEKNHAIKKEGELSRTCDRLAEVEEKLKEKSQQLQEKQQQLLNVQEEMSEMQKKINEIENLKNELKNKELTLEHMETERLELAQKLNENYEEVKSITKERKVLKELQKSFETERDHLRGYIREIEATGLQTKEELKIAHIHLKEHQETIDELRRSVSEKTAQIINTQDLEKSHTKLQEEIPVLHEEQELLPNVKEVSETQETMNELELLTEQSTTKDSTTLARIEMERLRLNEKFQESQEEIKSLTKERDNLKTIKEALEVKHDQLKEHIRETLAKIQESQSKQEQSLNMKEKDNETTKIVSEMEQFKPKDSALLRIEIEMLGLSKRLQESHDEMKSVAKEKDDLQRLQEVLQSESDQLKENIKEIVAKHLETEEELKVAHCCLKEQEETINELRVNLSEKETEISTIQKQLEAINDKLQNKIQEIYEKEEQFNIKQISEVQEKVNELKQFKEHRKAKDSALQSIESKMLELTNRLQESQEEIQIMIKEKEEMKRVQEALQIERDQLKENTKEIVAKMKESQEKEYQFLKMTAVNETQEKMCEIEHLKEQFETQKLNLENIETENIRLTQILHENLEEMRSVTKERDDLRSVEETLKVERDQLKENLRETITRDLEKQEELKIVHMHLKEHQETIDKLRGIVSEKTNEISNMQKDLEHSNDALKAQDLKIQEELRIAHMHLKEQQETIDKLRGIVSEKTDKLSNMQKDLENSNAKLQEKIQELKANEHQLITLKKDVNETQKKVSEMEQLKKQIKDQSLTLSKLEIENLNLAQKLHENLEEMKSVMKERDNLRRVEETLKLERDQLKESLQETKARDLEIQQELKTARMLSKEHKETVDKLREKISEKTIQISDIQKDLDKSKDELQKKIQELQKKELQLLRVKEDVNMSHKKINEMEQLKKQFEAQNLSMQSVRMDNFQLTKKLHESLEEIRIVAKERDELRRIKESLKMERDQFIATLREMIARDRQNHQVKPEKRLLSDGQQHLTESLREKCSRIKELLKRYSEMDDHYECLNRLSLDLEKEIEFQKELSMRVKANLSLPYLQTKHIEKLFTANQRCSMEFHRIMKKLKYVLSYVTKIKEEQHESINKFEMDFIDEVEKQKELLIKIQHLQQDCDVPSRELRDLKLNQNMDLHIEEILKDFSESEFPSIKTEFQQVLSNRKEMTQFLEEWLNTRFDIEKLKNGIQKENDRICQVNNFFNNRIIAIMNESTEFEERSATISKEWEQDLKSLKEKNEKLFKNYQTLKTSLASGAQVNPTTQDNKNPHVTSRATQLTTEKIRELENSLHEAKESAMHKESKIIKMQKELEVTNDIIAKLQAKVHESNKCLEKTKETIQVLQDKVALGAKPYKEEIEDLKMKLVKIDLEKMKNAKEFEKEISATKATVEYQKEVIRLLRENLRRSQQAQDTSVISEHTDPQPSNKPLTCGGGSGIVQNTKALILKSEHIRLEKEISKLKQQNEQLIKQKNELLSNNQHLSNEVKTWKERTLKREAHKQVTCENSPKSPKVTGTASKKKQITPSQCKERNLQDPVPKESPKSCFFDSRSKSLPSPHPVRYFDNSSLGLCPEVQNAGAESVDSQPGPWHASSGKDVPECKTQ
# Assay Info: Inhibition of CENP-E (unknown origin) ATPase activity in presence 365 nm of light illumination
Quantity: IC50 (nM)

a: CNC(=O)[C@H](Cc1ccc(/N=N/c2c(C)nn(C(N)=S)c2C)cc1)NC(=O)c1ccc(OC(C)C)c(Cl)c1
b: CNC(=O)[C@H](Cc1ccc(/N=N/c2c(C)nn(C(N)=O)c2C)cc1)NC(=O)c1ccc(OC(C)C)c(Cl)c1
Sorting by IC50 in descending order, would a or b appear first? Your answer should be the label attached to the chosen record. b
(b: 129 nM, a: 51.3 nM)

---

# System Under Test: Centromere-associated protein E (Homo sapiens, UniProt Q02224)
# Assay Info: Inhibition of CENP-E (unknown origin) ATPase activity in presence 365 nm of light illumination
Quantity: IC50 (nM)

Examples from the recorded data:
CNC(=O)[C@H](Cc1ccc(/N=N/c2c(C)nn(C3=NCCN3)c2C)cc1)NC(=O)c1ccc(OC(C)C)c(Cl)c1 | 417
CNC(=O)[C@H](Cc1ccc(/N=N/c2c(C)nn(-c3ccccn3)c2C)cc1)NC(=O)c1ccc(OC(C)C)c(Cl)c1 | 162
CNC(=O)[C@H](Cc1ccc(/N=N/c2c(C)nn(C=O)c2C)cc1)NC(=O)c1ccc(OC(C)C)c(Cl)c1 | 120
CNC(=O)[C@H](Cc1ccc(/N=N/c2c(C)nn(CCO)c2C)cc1)NC(=O)c1ccc(OC(C)C)c(Cl)c1 | 195

A: CCCC(=O)n1nc(C)c(/N=N/c2ccc(C[C@H](NC(=O)c3ccc(OC(C)C)c(Cl)c3)C(=O)NC)cc2)c1C
B: CNC(=O)[C@H](Cc1ccc(/N=N/c2c(C)noc2C)cc1)NC(=O)c1ccc(OC(C)C)c(Cl)c1
Could you tell me which of these two has the smaller IC50 figure? First: A Second: B Your answer should be the label attached to the chosen record. A
(A: 83.2 nM, B: 166 nM)

---

# Test system: HeLa
# Assay Info: Antiproliferative activity against human HeLa cells assessed as inhibition of cell proliferation
# Format: functional, cell-based
pIC50: −log10 of the molar value.
Quantity: pIC50

Examples from the recorded data:
CCCC(=O)n1nc(C)c(/N=N/c2ccc(C[C@H](NC(=O)c3ccc(OC(C)C)c(Cl)c3)C(=O)NC)cc2)c1C | 6.35
CNC(=O)[C@H](Cc1ccc(/N=N/c2c(C)nn(C)c2C)cc1)NC(=O)c1ccc(OC(C)C)c(Cl)c1 | 6.72
CNC(=O)[C@H](Cc1ccc(/N=N/c2c(C)nn(-c3ccccn3)c2C)cc1)NC(=O)c1ccc(OC(C)C)c(Cl)c1 | 5.00

1: CNC(=O)[C@H](Cc1ccc(/N=N/c2c(C)nn(-c3ccc(F)cc3F)c2C)cc1)NC(=O)c1ccc(OC(C)C)c(Cl)c1
2: CNC(=O)[C@H](Cc1ccc(/N=N/c2c(C)noc2C)cc1)NC(=O)c1ccc(OC(C)C)c(Cl)c1
Sorting by pIC50 in descending order, would 1 or 2 appear first? Your answer should be the label attached to the chosen record. 2

---

# Test system: HeLa
# Assay Info: Antiproliferative activity against human HeLa cells assessed as inhibition of cell proliferation
# Assay type: functional, cell-based
Quantity: IC50 (µM)

Examples from the recorded data:
CNC(=O)[C@H](Cc1ccc(/N=N/c2c(C)nn(-c3cccc4ccccc34)c2C)cc1)NC(=O)c1ccc(OC(C)C)c(Cl)c1 | 10
CNC(=O)[C@H](Cc1ccc(/N=N/c2c(C)nn(C(N)=S)c2C)cc1)NC(=O)c1ccc(OC(C)C)c(Cl)c1 | 10
CNC(=O)[C@H](Cc1ccc(/N=N/c2c(C)nn(C(=N)N)c2C)cc1)NC(=O)c1ccc(OC(C)C)c(Cl)c1 | 10

I: CNC(=O)[C@H](Cc1ccc(/N=N/c2c(C)nn(C(N)=O)c2C)cc1)NC(=O)c1ccc(OC(C)C)c(Cl)c1
II: CNC(=O)[C@H](Cc1ccc(/N=N/c2c(C)nn(CCO)c2C)cc1)NC(=O)c1ccc(OC(C)C)c(Cl)c1
Could you tell me which of these two has the smaller IC50 figure? First: I Second: II Your answer should be the label attached to the chosen record. II
(II: 0.2 µM, I: 0.457 µM)

---

# System Under Test: Centromere-associated protein E (Homo sapiens)
# Assay Info: Inhibition of CENP-E (unknown origin) ATPase activity in absence of light illumination
pIC50: −log10 of the molar value.
Quantity: pIC50

Examples from the recorded data:
CNC(=O)[C@H](Cc1ccc(/N=N/c2c(C)nn(C(=O)OC)c2C)cc1)NC(=O)c1ccc(OC(C)C)c(Cl)c1 | 6.42
CNC(=O)[C@H](Cc1ccc(/N=N/c2c(C)nn(C=O)c2C)cc1)NC(=O)c1ccc(OC(C)C)c(Cl)c1 | 6.91
CNC(=O)[C@H](Cc1ccc(/N=N/c2c(C)nn(CCO)c2C)cc1)NC(=O)c1ccc(OC(C)C)c(Cl)c1 | 7.92
CNC(=O)[C@H](Cc1ccc(/N=N/c2c(C)nn(-c3ccccn3)c2C)cc1)NC(=O)c1ccc(OC(C)C)c(Cl)c1 | 7.03
CNC(=O)[C@H](Cc1ccc(/N=N/c2c(C)nn(C3CCCCC3)c2C)cc1)NC(=O)c1ccc(OC(C)C)c(Cl)c1 | 6.98
CNC(=O)[C@H](Cc1ccc(/N=N/c2c(C)noc2C)cc1)NC(=O)c1ccc(OC(C)C)c(Cl)c1 | 7.70
CNC(=O)[C@H](Cc1ccc(/N=N/c2c(C)nn(C3=NCCN3)c2C)cc1)NC(=O)c1ccc(OC(C)C)c(Cl)c1 | 6.62
CNC(=O)[C@H](Cc1ccc(/N=N/c2c(C)nn(Cc3ccccc3)c2C)cc1)NC(=O)c1ccc(OC(C)C)c(Cl)c1 | 6.69

a: CNC(=O)[C@H](Cc1ccc(/N=N/c2c(C)nn(-c3ccc(F)cc3F)c2C)cc1)NC(=O)c1ccc(OC(C)C)c(Cl)c1
b: CNC(=O)[C@H](Cc1ccc(/N=N/c2c(C)nn(C(N)=O)c2C)cc1)NC(=O)c1ccc(OC(C)C)c(Cl)c1
c: CNC(=O)[C@H](Cc1ccc(/N=N/c2c(C)nn(C(=O)c3ccccc3)c2C)cc1)NC(=O)c1ccc(OC(C)C)c(Cl)c1
d: CNC(=O)[C@H](Cc1ccc(/N=N/c2c(C)nn(C(C)C)c2C)cc1)NC(=O)c1ccc(OC(C)C)c(Cl)c1
e: CCCC(=O)n1nc(C)c(/N=N/c2ccc(C[C@H](NC(=O)c3ccc(OC(C)C)c(Cl)c3)C(=O)NC)cc2)c1C
Rank entries according to their pIC50, from the largest number down. List the labels, following the order given in the request. b, e, d, c, a

---

# System Under Test: UniProt:Q02224
# Assay Info: Inhibition of CENP-E (unknown origin) ATPase activity in presence 365 nm of light illumination
pIC50: −log10 of the molar value.
Quantity: pIC50

P: CNC(=O)[C@H](Cc1ccc(/N=N/c2c(C)nn(C(=N)N)c2C)cc1)NC(=O)c1ccc(OC(C)C)c(Cl)c1
Q: CNC(=O)[C@H](Cc1ccc(/N=N/c2c(C)nn(C(C)=O)c2C)cc1)NC(=O)c1ccc(OC(C)C)c(Cl)c1
Sorting by pIC50 in descending order, would P or Q appear first? Your answer should be the label attached to the chosen record. P

---

# System: HeLa
# Assay Info: Antiproliferative activity against human HeLa cells assessed as inhibition of cell proliferation
# Format: functional, cell-based
Catalogue of IC50 values

CNC(=O)[C@H](Cc1ccc(/N=N/c2c(C)nn(C(=O)c3ccccc3)c2C)cc1)NC(=O)c1ccc(OC(C)C)c(Cl)c1 | > 10 µM
CNC(=O)[C@H](Cc1ccc(/N=N/c2c(C)n[nH]c2C)cc1)NC(=O)c1ccc(OC(C)C)c(Cl)c1 | > 10 µM

Could you tell me which IC50 is on file for CNC(=O)[C@H](Cc1ccc(/N=N/c2c(C)nn(C(C)C)c2C)cc1)NC(=O)c1ccc(OC(C)C)c(Cl)c1 ? > 10 µM

Could you tell me which IC50 is on file for CNC(=O)[C@H](Cc1ccc(/N=N/c2c(C)nn(C3=NCCN3)c2C)cc1)NC(=O)c1ccc(OC(C)C)c(Cl)c1 ? > 10 µM

Could you tell me which IC50 is on file for CNC(=O)[C@H](Cc1ccc(/N=N/c2c(C)nn(C=O)c2C)cc1)NC(=O)c1ccc(OC(C)C)c(Cl)c1 ? 0.55 µM

Could you tell me which IC50 is on file for CNC(=O)[C@H](Cc1ccc(/N=N/c2c(C)nn(C(C)=O)c2C)cc1)NC(=O)c1ccc(OC(C)C)c(Cl)c1 ? > 10 µM
